Ref: patent US20260078185A1

Target: Human VISTA recombinant protein (Sino Biological Inc., Cat. #13482-H08H), biotinylated (UniProt Q9H7M9 33-194, biotinylated using EZ-LINK NHS-PEG4 biotin)
Sequence (Q9H7M9 33-194): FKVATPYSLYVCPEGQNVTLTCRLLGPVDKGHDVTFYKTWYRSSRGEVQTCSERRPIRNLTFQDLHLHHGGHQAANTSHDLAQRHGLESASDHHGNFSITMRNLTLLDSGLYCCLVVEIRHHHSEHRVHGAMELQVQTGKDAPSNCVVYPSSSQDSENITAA
Test: Octet BLI
readout_kind: Kd (nM)
Could you give me the number in nM? Just the number is fine.

Look over these answered cases.
binder	Kd / nM
20E4-VH4/VL4 (antibody, V domains shown) VH: QVQLVQSGAEVKKPGASVKVSCKASGYTFTSSWVEWVRQAPGQGLEWMGEIFPGSGSTHYNEKFKGRVTMTRDTSTSTVYMELSSLRSEDTAVYYCARRPPGWFFDVWGQGTMVTVSS VL: DIVMTQSPDSLAVSLGERATINCKASQDVSTDVAWYQQKPGQPPKLLIYSASYRYTGVPDRFSGSGSGTDFTLTISSLQAEDVAVYYCQQHYSTPWTFGGGTKVEIK	6.22
20E4-VH3/VL3 (antibody, V domains shown) VH: QVQLVQSGAEVMKPGASVKISCKATGYTFSSSWVEWVRQRPGQGLEWIGEIFPGSGSTHYNEKFKGKATMTADTSISTAYMELSRLRSDDTAVYYCARRPPGWFFDVWGAGTTVTVSS VL: DIVMTQSPSSLSASVGDRVTITCKASQDVSTDVAWYQQKPGKAPKLLIYSASYRYTGVPSRFSGSGSGTDFTFTISSVQPEDLAVYYCQQHYSTPWTFGGGTKLEIK	3.09

(Q) Record request: Kd value, item 20E4 parental anti-VISTA antibody (VH0/VL0) (antibody, V domains shown) VH: QVQLQQSGAELMKPGASVKISCKATGYTFSSSWVEWVRQRPGHGLEWIGEIFPGSGSTHYNEKFKGKATFTADTSSNTAYLQLSSLTSDDSAVYYCARRPPGWFFDVWGAGTTVTVSS VL: DIVMTQSHKFMSTSVGDRVSITCKASQDVSTDVAWYQQKPGQSPKLLIYSASYRYTGVPDRFTGSGSGTDFTFTISSVQAEDLAVYYCQQHYSTPWTFGGGTKLEIK
(A) 4.37
